Target: Adenosine receptor A1 (Homo sapiens) (UniProt P30542)
Assay: Allosteric enhancer activity at recombinant human A1 adenosine receptor expressed in CHO cells assessed as change in forskolin-induced cAMP production at 1 uM after 6 mins by radioimmunoassay
Type: functional, cell-based
measurement name: Activity (%)
Answer in %, number only, no unit symbol.

structure smiles: Nc1scc(CN2CCN(c3cccc(Cl)c3)CC2)c1C(=O)c1ccc(Cl)cc1
Activity, %: -59
//
structure smiles: Nc1scc(CN2CCN(c3cc(F)ccc3F)CC2)c1C(=O)c1ccc(Cl)cc1
Activity, %: -59
//
structure smiles: Nc1scc(CN2CCN(c3ccc(Cl)c(Cl)c3)CC2)c1C(=O)c1ccc(Cl)cc1
Activity, %: -60

Let us examine a further case.
IN: Request: Activity, test system Adenosine receptor A1 (Homo sapiens) (UniProt P30542), entry "Nc1scc(CN2CCN(c3ccc(F)c(Cl)c3)CC2)c1C(=O)c1ccc(Cl)cc1"
OUT: -60

----------
Molecular target: Adenosine receptor A1 (Homo sapiens)
Assay: Allosteric enhancer activity at recombinant human A1 adenosine receptor expressed in CHO cells assessed as change in forskolin-induced cAMP production at 10 uM after 6 mins by radioimmunoassay
Type: functional, cell-based
Please note: 1.0 applies when Activity is -70% or greater, and 0.0 applies otherwise.

These recorded examples may help you get a feel for the data.
structure smiles: Nc1scc(CN2CCN(c3ccc(F)cc3F)CC2)c1C(=O)c1ccc(Cl)cc1
study system: Adenosine receptor A1 (Homo sapiens)
classification: 0.0
//
structure smiles: Nc1scc(CN2CCN(c3c(F)cc(F)cc3F)CC2)c1C(=O)c1ccc(Cl)cc1
study system: Adenosine receptor A1 (Homo sapiens)
classification: 0.0

IN: Check this molecule for Activity at or above -70%: "Nc1scc(CN2CCN(c3cccc(C(F)(F)F)c3)CC2)c1C(=O)c1ccc(Cl)cc1"
OUT: 0.0

IN: Check this molecule for Activity at or above -70%: "Nc1scc(CN2CCN(CC(=O)c3ccc(Cl)cc3)CC2)c1C(=O)c1ccc(Cl)cc1"
OUT: 1.0

IN: Check this molecule for Activity at or above -70%: "Nc1scc(CN2CCN(c3cccc(F)c3)CC2)c1C(=O)c1ccc(Cl)cc1"
OUT: 0.0

IN: Check this molecule for Activity at or above -70%: "Nc1scc(CN2CCN(c3cccc(Cl)c3)CC2)c1C(=O)c1ccc(Cl)cc1"
OUT: 0.0

IN: Check this molecule for Activity at or above -70%: "Nc1scc(CN2CCN(CCc3ccc(Cl)cc3)CC2)c1C(=O)c1ccc(Cl)cc1"
OUT: 0.0

IN: Check this molecule for Activity at or above -70%: "Nc1scc(CN2CCN(c3cc(F)ccc3F)CC2)c1C(=O)c1ccc(Cl)cc1"
OUT: 0.0

IN: Check this molecule for Activity at or above -70%: "COc1ccc(N2CCN(Cc3csc(N)c3C(=O)c3ccc(Cl)cc3)CC2)cc1"
OUT: 1.0

IN: Check this molecule for Activity at or above -70%: "Nc1scc(CN2CCN(c3ccc(Cl)c(Cl)c3)CC2)c1C(=O)c1ccc(Cl)cc1"
OUT: 1.0

IN: Check this molecule for Activity at or above -70%: "Nc1scc(CN2CCN(c3ccc(OC(F)(F)F)cc3)CC2)c1C(=O)c1ccc(Cl)cc1"
OUT: 0.0

IN: Check this molecule for Activity at or above -70%: "Nc1scc(CN2CCN(C(=O)Cc3ccc(Cl)cc3)CC2)c1C(=O)c1ccc(Cl)cc1"
OUT: 1.0

----------
Target: Adenosine receptor A1 (Homo sapiens)
Sequence (whole entry): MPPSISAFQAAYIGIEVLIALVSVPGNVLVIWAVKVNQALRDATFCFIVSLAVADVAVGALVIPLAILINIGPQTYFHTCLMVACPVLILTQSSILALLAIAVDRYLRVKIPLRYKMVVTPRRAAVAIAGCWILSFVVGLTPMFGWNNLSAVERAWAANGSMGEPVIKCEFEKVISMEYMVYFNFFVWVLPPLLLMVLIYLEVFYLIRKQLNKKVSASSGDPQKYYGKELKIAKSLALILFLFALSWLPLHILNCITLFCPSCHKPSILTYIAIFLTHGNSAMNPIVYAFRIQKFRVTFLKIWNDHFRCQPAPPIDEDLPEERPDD
Experiment: Displacement of [3H]DPCPX from recombinant human A1 adenosine receptor expressed in CHO cells at 10 uM after 120 mins by scintillation counting
Type: cell-based
Below, each entry is listed alongside its reported inhibition.
Answer in %, number only, no unit symbol.

As a guide, the following entries are already answered.
structure smiles: Nc1scc(CN2CCN(c3ccc(C(F)(F)F)cc3)CC2)c1C(=O)c1cccc(C(F)(F)F)c1
inhibition, %: 0
//
structure smiles: Nc1scc(CN2CCN(c3ccccc3Cl)CC2)c1C(=O)c1ccc(Cl)cc1
inhibition, %: 2
//
structure smiles: Nc1scc(CN2CCN(CCCc3ccc(Cl)cc3)CC2)c1C(=O)c1ccc(Cl)cc1
inhibition, %: 0
//
structure smiles: Cc1sc(N)c(C(=O)c2cccc(C(F)(F)F)c2)c1C
inhibition, %: 0
//
structure smiles: Nc1scc(CN2CCN(c3c(F)cccc3F)CC2)c1C(=O)c1cccc(C(F)(F)F)c1
inhibition, %: 0

Let us examine a further case.
IN: Request: inhibition, test system Adenosine receptor A1 (Homo sapiens), entry "Nc1scc(CN2CCN(c3ccc([N+](=O)[O-])cc3)CC2)c1C(=O)c1ccc(Cl)cc1"
OUT: 1

----------
Target: UniProtKB P30542
Assay: Binding affinity to recombinant human A1 adenosine receptor allosteric site expressed in CHO cells assessed as potentiation of CCPA-induced [3H]DPCPX displacement at 10 uM after 90 mins relative to control
Assay type: cell-based
Please note: Criterion met applies when fold change (FC) is 4 or greater, and Criterion not met applies otherwise.

structure smiles: Nc1scc(CN2CCN(c3ccc(F)cc3F)CC2)c1C(=O)c1ccc(Cl)cc1
classification: Criterion met
//
structure smiles: Nc1scc(CN2CCN(c3c(F)cc(F)cc3F)CC2)c1C(=O)c1ccc(Cl)cc1
classification: Criterion not met
//
structure smiles: Nc1scc(CN2CCN(c3ccncc3)CC2)c1C(=O)c1ccc(Cl)cc1
classification: Criterion not met
//
structure smiles: Nc1scc(CN2CCN(c3ccccc3Cl)CC2)c1C(=O)c1ccc(Cl)cc1
classification: Criterion not met
//
structure smiles: Nc1scc(CN2CCN(c3ccc(F)c(Cl)c3)CC2)c1C(=O)c1ccc(Cl)cc1
classification: Criterion met

IN: Check this molecule for fold change (FC) at or above 4: "Nc1scc(CN2CCN(C3CCCC3)CC2)c1C(=O)c1ccc(Cl)cc1"
OUT: Criterion not met

IN: Check this molecule for fold change (FC) at or above 4: "Nc1scc(CN2CCN(c3c(F)cccc3F)CC2)c1C(=O)c1cccc(C(F)(F)F)c1"
OUT: Criterion not met

----------
Target: UniProt P0DMS8
Sequence (P0DMS8 whole entry): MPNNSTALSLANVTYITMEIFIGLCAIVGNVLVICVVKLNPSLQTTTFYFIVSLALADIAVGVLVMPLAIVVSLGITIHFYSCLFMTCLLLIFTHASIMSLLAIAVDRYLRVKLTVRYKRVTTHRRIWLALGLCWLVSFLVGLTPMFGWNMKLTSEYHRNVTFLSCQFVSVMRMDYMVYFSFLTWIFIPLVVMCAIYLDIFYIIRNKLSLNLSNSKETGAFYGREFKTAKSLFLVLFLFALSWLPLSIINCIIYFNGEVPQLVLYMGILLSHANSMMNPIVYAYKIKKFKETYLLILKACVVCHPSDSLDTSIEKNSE
Assay: Displacement of [3H]MRE3008F20 from recombinant human A3 adenosine receptor expressed in CHO cells at 10 uM after 120 mins by scintillation counting
Type: cell-based
Below, each entry is listed alongside its reported inhibition.
Answer in %, number only, no unit symbol.

As a guide, the following entries are already answered.
structure smiles: Nc1scc(CN2CCN(c3ccc(Cl)cc3Cl)CC2)c1C(=O)c1ccc(Cl)cc1
numeric result: 0
//
structure smiles: Nc1scc(CN2CCN(c3cccc(F)c3F)CC2)c1C(=O)c1ccc(Cl)cc1
numeric result: 0
//
structure smiles: Nc1scc(CN2CCN(C(=O)Cc3ccc(Cl)cc3)CC2)c1C(=O)c1ccc(Cl)cc1
numeric result: 0

IN: # inhibition lookup, item "CC(C)N1CCN(Cc2csc(N)c2C(=O)c2ccc(Cl)cc2)CC1"
OUT: 0

IN: # inhibition lookup, item "Nc1scc(CN2CCN(c3ccc(OC(F)(F)F)cc3)CC2)c1C(=O)c1ccc(Cl)cc1"
OUT: 1

IN: # inhibition lookup, item "Nc1scc(CN2CCN(c3ccc(F)cc3Cl)CC2)c1C(=O)c1ccc(Cl)cc1"
OUT: 0

IN: # inhibition lookup, item "Nc1scc(CN2CCN(c3ccc(Cl)c(Cl)c3)CC2)c1C(=O)c1ccc(Cl)cc1"
OUT: 3

IN: # inhibition lookup, item "Nc1scc(CN2CCN(c3cccc(Cl)c3Cl)CC2)c1C(=O)c1ccc(Cl)cc1"
OUT: 0

IN: # inhibition lookup, item "Nc1scc(CN2CCN(c3cccc(F)c3)CC2)c1C(=O)c1ccc(Cl)cc1"
OUT: 4

IN: # inhibition lookup, item "Nc1scc(CN2CCN(c3cccc4ccccc34)CC2)c1C(=O)c1ccc(Cl)cc1"
OUT: 0

IN: # inhibition lookup, item "Nc1scc(CN2CCN(C3CCCC3)CC2)c1C(=O)c1ccc(Cl)cc1"
OUT: 3

IN: # inhibition lookup, item "Nc1scc(CN2CCN(c3ccc(F)cc3F)CC2)c1C(=O)c1ccc(Cl)cc1"
OUT: 0

IN: # inhibition lookup, item "Nc1scc(CN2CCN(CCc3ccc(Cl)cc3)CC2)c1C(=O)c1ccc(Cl)cc1"
OUT: 2

IN: # inhibition lookup, item "Nc1scc(CN2CCN(c3c(F)cccc3F)CC2)c1C(=O)c1ccc(Cl)cc1"
OUT: 4

IN: # inhibition lookup, item "Nc1scc(CN2CCN(c3ccccc3F)CC2)c1C(=O)c1ccc(Cl)cc1"
OUT: 0

IN: # inhibition lookup, item "Nc1scc(CN2CCN(c3c(F)cccc3F)CC2)c1C(=O)c1cccc(C(F)(F)F)c1"
OUT: 0

IN: # inhibition lookup, item "Nc1scc(CN2CCN(c3cc(F)cc(F)c3)CC2)c1C(=O)c1ccc(Cl)cc1"
OUT: 2

IN: # inhibition lookup, item "Nc1scc(CN2CCN(c3cc(Cl)ccc3Cl)CC2)c1C(=O)c1ccc(Cl)cc1"
OUT: 1

IN: # inhibition lookup, item "Nc1scc(CN2CCN(c3ccncc3)CC2)c1C(=O)c1ccc(Cl)cc1"
OUT: 2

IN: # inhibition lookup, item "Nc1scc(CN2CCN(c3cc(Cl)cc(Cl)c3)CC2)c1C(=O)c1ccc(Cl)cc1"
OUT: 1

IN: # inhibition lookup, item "Nc1scc(CN2CCN(CC(=O)c3ccc(Cl)cc3)CC2)c1C(=O)c1ccc(Cl)cc1"
OUT: 0

IN: # inhibition lookup, item "COc1ccc(N2CCN(Cc3csc(N)c3C(=O)c3ccc(Cl)cc3)CC2)cc1"
OUT: 0
